Entries and their Minimal inhibitory concentration (MIC) E. faecalis ATCC29121 values follow.
test system: Enterococcus faecalis ATCC29121; format: cell-based; settings: ATCC29121, 24 h
measuredParameter: Minimal inhibitory concentration (MIC) E. faecalis ATCC29121

compound | measuredValue
CC(=O)N[C@@H](CCCCN)c1nc(C)sc1C(=O)N[C@@H](C)c1nc(CCCCN)sc1C(=O)N[C@@H](C)c1nc(C)sc1C(=O)N[C@@H](CCCCN)c1nc(C)sc1C(=O)N[C@@H](C)c1nc(CCCCN)sc1C(=O)N[C@@H](C)c1nc(C)sc1C(=O)N[C@@H](CCCCN)c1nc(C)sc1C(=O)N[C@@H](C)c1nc(CCCCN)sc1C(=O)N[C@@H](C)c1nc(C)sc1C(N)=O [Oligomer 3] | >150 µM
CC(=O)N[C@@H](CCCCN)c1nc(C)sc1C(=O)N[C@@H](CC(C)C)c1nc(CCCCN)sc1C(=O)N[C@@H](C)c1nc(CC(C)C)sc1C(=O)N[C@@H](CCCCN)c1nc(C)sc1C(=O)N[C@@H](CC(C)C)c1nc(CCCCN)sc1C(=O)N[C@@H](C)c1nc(CC(C)C)sc1C(=O)N[C@@H](CCCCN)c1nc(C)sc1C(=O)N[C@@H](CC(C)C)c1nc(CCCCN)sc1C(=O)N[C@@H](C)c1nc(CC(C)C)sc1C(N)=O [Oligomer 6] | 6.2 µM
CC(=O)N[C@@H](CCCNC(=N)N)c1nc(C)sc1C(=O)N[C@@H](C)c1nc(CCCNC(=N)N)sc1C(=O)N[C@@H](C)c1nc(C)sc1C(=O)N[C@@H](CCCNC(=N)N)c1nc(C)sc1C(=O)N[C@@H](C)c1nc(CCCNC(=N)N)sc1C(=O)N[C@@H](C)c1nc(C)sc1C(=O)N[C@@H](CCCNC(=N)N)c1nc(C)sc1C(=O)N[C@@H](C)c1nc(CCCNC(=N)N)sc1C(=O)N[C@@H](C)c1nc(C)sc1C(N)=O [Oligomer 8] | 100 µM

// data source = patent US20220242905A1
